Recorded pIC50 by entry
# System: MDA-MB-231 breast cancer cell
# assay-name: MTT cell viability assay, MDA-MB-231 breast cancer cell
# Format: cell-based, human
# run-conditions: MDA-MB-231, treated 24 hours; read-out: IC50 24 hours
pIC50: −log10 of the molar value.

{"compound": "CCC(CO)(CO)C(=O)Oc1cc(/C=C/C(=O)/C=C(O)/C=C/c2ccc(OC)c(O)c2)ccc1OC", "value-operator": "=", "pIC50": 5.02}
{"compound": "COc1cc(/C=C/C(=O)C(Cc2ccccc2)(Cc2ccccc2)C(=O)/C=C/c2ccc(OC(=O)C(C)(CO)CO)c(OC)c2)ccc1OC(=O)C(C)(CO)CO [Compound 35c]", "value-operator": "=", "pIC50": 5.22}
{"compound": "CCC(CO)(CO)C(=O)Oc1ccc(/C=C/C(=O)/C=C(O)/C=C/c2ccc(OC(=O)C(CC)(CO)CO)c(OC)c2)cc1OC [Compound 22a]", "value-operator": "=", "pIC50": 5.33}
{"compound": "O=C(/C=C/c1ccc(O)cc1)CC(=O)/C=C/c1ccc(O)cc1 [Bisdemethoxycurcumin, bisdemethoxycurcumin, reference compound]", "value-operator": "<", "pIC50": 4.00}

###

# Tested on: T47D
# assay-name: Cell viability, T47D breast cancer cells
# Assay type: cell-based
# run-conditions: Homo sapiens; T47D (ER+/PR+), treated for 24 h

{"molecule": "COc1cc(/C=C/C(=O)/C=C(O)/C=C/c2ccc(O)c(OC)c2)ccc1O", "IC50": "47.9 µM"}
{"molecule": "COc1cc(/C=C/C(=O)/C=C(O)/C=C/c2ccc(OC(=O)C(C)(CO)CO)c(OC)c2)ccc1OC(=O)C(C)(CO)CO [Compound 21a]", "IC50": "19.3 µM"}

###

# Tested on: HCT-116 colon cancer cell
# assay-name: MTT cell viability assay, HCT-116 colon cancer cell
# Type: cell-based
# run-conditions: Homo sapiens; HCT-116, treated 48 hours; read-out: IC50 48 hours
Known IC50 of a selection of molecules

{"molecule": "COc1ccc(/C=C/C(=O)C(CO)(CO)C(=O)/C=C/c2ccc(OC)c(OC)c2)cc1OC [Compound 42]", "IC50, µM": 8}
{"molecule": "COc1ccc(/C=C/C(=O)CC(=O)/C=C/c2ccc(OC)c(OC(=O)C(C)(CO)CO)c2)cc1O [Compound 24b]", "IC50, µM": 3.84}
{"molecule": "CC(CO)(CO)C(=O)Oc1ccc(/C=C/C(=O)/C=C(O)/C=C/c2ccc(O)cc2)cc1 [Compound 23b]", "IC50, µM": 11.3}
{"molecule": "CCC(CO)(CO)C(=O)Oc1ccc(/C=C/C(=O)CC(=O)/C=C/c2ccc(OC(=O)C(CC)(CO)CO)c(OC(F)(F)F)c2)cc1OC(F)(F)F [Compound 29]", "IC50, µM": 4.69}
{"molecule": "COc1ccc(/C=C/C(=O)CC(=O)/C=C/c2ccc(OC)c(OC(=O)C(C)(CO)CO)c2)cc1OC(=O)C(C)(CO)CO [Compound 24a]", "IC50, µM": 5.33}
{"molecule": "COc1cc(/C=C/C(=O)CC(=O)/C=C/c2ccc(OC(=O)C(CO)(CO)CO)c(OC)c2)ccc1O [Compound 38a]", "IC50, µM": 18.4}

###

# Test system: MDA-MB-231 breast cancer cell
# assay-name: MTT cell viability assay, MDA-MB-231 breast cancer cell
# Assay type: cell-based, human
# run-conditions: Homo sapiens, MDA-MB-231, 48 h, MDA-MB-231, treated 48 hours; read-out: IC50 48 hours
pIC50: −log10 of the molar value.

{"molecule": "CCOc1cc(/C=C/C(=O)/C=C(O)/C=C/c2ccc(OC(=O)C(CC)(CO)CO)c(OCC)c2)ccc1OC(=O)C(CC)(CO)CO", "pIC50": 5.13}
{"molecule": "COc1ccc(/C=C/C(=O)C(COC(C)=O)(COC(C)=O)C(=O)/C=C/c2ccc(OC)c(OC)c2)cc1OC", "pIC50": 6.05}
{"molecule": "COc1ccc(/C=C/C(O)=C/C(=O)/C=C/c2ccc(OC(=O)C(C)(CO)CO)c(OC)c2)cc1OC", "pIC50": 5.51}
{"molecule": "CC(CO)(CO)C(=O)Oc1ccc(/C=C/C(=O)/C=C(O)/C=C/c2ccc(OC(=O)C(C)(CO)CO)cc2)cc1 [Compound 23a]", "pIC50": 5.11}
{"molecule": "COc1cc(/C=C/C(=O)/C=C(O)/C=C/c2cc(OC)c(OC(=O)C(C)(CO)CO)c(OC)c2)cc(OC)c1OC(=O)C(C)(CO)CO", "pIC50": 5.05}
{"molecule": "COc1ccc(/C=C/C(=O)CC(=O)/C=C/c2ccc(OC)c(OC(=O)C(C)(CO)CO)c2)cc1OC(=O)C(C)(CO)CO [Compound 24a]", "pIC50": 5.29}
{"molecule": "COc1ccc(/C=C/C(=O)CC(=O)/C=C/c2ccc(OC)c(OC(=O)C(C)(CO)CO)c2)cc1O [Compound 24b]", "pIC50": 5.70}

###

As shown below, each of these molecules has a reported pIC50 value.
# Test system: HCT-116 colon cancer cell
# assay-name: MTT cell viability assay, HCT-116 colon cancer cell
# Type: cell-based
# run-conditions: Homo sapiens; HCT-116, treated 72 hours; read-out: IC50 72 hours
# Protocol: Cell viability was evaluated by measuring the reduction in MTT to yield blue formazan. Cells were cultured in 96-well plates, allowed to attach overnight, and then treated with compounds. After treatment, MTT solution (1 mg/ml) was added to each well, and plates were incubated for another 4 h. Medium were removed, blue formazan was dissolved in DMSO, and the absorbance was read at 570 nm^20.
pIC50: −log10 of the molar value.

{"molecule": "COc1ccc(/C=C/C(=O)C(COC(C)=O)(COC(C)=O)C(=O)/C=C/c2ccc(OC)c(OC)c2)cc1OC", "pIC50": 5.82}
{"molecule": "COc1cc(/C=C/C(=O)/C=C(O)/C=C/c2ccc(O)c(OC)c2)ccc1O", "pIC50": 4.86}
{"molecule": "CCC(CO)(CO)C(=O)Oc1ccc(/C=C/C(=O)/C=C(O)/C=C/c2ccc(O)c(OC)c2)cc1OC [Compound 22b]", "pIC50": 4.94}
{"molecule": "COc1cc(/C=C/C(=O)/C=C(O)/C=C/c2cc(OC)c(OC(=O)C(C)(CO)CO)c(OC)c2)cc(OC)c1OC(=O)C(C)(CO)CO", "pIC50": 5.29}

###

# Test system: MDA-MB-231 breast cancer cell
# assay-name: MTT cell viability assay, MDA-MB-231 breast cancer cell
# Assay type: cell-based, human
# run-conditions: Homo sapiens, MDA-MB-231, 48 h, MDA-MB-231, treated 48 hours; read-out: IC50 48 hours
pIC50: −log10 of the molar value.
Is pIC50 at least 5? Then YES. If not, NO.

{"molecule": "COc1cc(/C=C/C(=O)CC(=O)/C=C/c2ccc(OC(=O)C(CO)(CO)CO)c(OC)c2)ccc1O [Compound 38a]", "assigned-label": "NO"}
{"molecule": "COc1cc(/C=C/C(=O)C(CO)(CO)C(=O)/C=C/c2ccc(OC(=O)C(C)(CO)CO)c(OC)c2)ccc1OC(=O)C(C)(CO)CO", "assigned-label": "NO"}
{"molecule": "COc1ccc(/C=C/C(=O)C(C)(C)C(=O)/C=C/c2ccc(OC)c(OC(=O)C(C)(CO)CO)c2)cc1OC(=O)C(C)(CO)CO", "assigned-label": "YES"}

###

# System: HCT-116 colon cancer cell
# assay-name: MTT cell viability assay, HCT-116 colon cancer cell
# Type: cell-based
# run-conditions: Homo sapiens; HCT-116, treated 72 hours; read-out: IC50 72 hours
Cut-off 3000 nM on IC50: below means yes, at or above means no.

{"compound": "CC(CO)(CO)C(=O)Oc1ccc(/C=C/C(=O)C(C)(C)C(=O)/C=C/c2ccc(OC(=O)C(C)(CO)CO)cc2)cc1", "assigned-label": "yes"}
{"compound": "CCC(CO)(CO)C(=O)Oc1ccc(/C=C/C(=O)CC(=O)/C=C/c2ccc(OC(=O)C(CC)(CO)CO)c(OC(F)(F)F)c2)cc1OC(F)(F)F", "assigned-label": "no"}
{"compound": "COc1ccc(/C=C/C(=O)CC(=O)/C=C/c2ccc(OC)c(OC(=O)C(C)(CO)CO)c2)cc1O [Compound 24b]", "assigned-label": "yes"}
{"compound": "CCC(CC)(C(=O)/C=C/c1ccc(OC(=O)C(C)(CO)CO)c(OC)c1)C(=O)/C=C/c1ccc(OC(=O)C(C)(CO)CO)c(OC)c1 [Compound 35b]", "assigned-label": "yes"}
{"compound": "COc1cc(/C=C/C(=O)C(COC(C)=O)(COC(C)=O)C(=O)/C=C/c2ccc(OC(=O)C(C)(CO)CO)c(OC)c2)ccc1OC(=O)C(C)(CO)CO", "assigned-label": "no"}
